System Under Test: human Factor IXa (human, UniProt P00740 47-191; P00740 227-461)
Assay Overview: cell-based or functional assay
Square brackets hold non-standard residues; d marks the D form. Ends that are not written are not given here.
Observation Type: EC50 [µM], FXa generation assay

A selection of reference data follows.
>  <Binder>
RRAPGKLCALASYACLFWTGIA-OH (cysteine pairing not given here) [RRAPGKLCALASYACLFWTGIA-COOH]

>  <Val>
> 10 µM

$$$$
>  <Binder>
PRSRTVGPGSRSASGKSTCLASYCWLFWTGIA

>  <Val>
< 0.5 µM

$$$$

Next binder, please.
What the record says about SKQGRPISPD[dR]RAAGKLTCLASYCWLFWTG (not fully specified; printed as SKQGRPISPDrRAAGKLTCLASYCWLFWTG; cysteine pairing not given here) [SKQGRPISPDrRAAGKLTCLASYCWLFWTG] : EC50 [µM], FXa generation assay is < 0.5 µM
